EXPERIMENT_NOTES: gradient 5% acetonitrile 3 min, to 50% in 2 min, to 85% in 15 min, held 3 min, 100 µL/min
STATED_CONDITIONS: column: Zorbax Extend-C18 2.1 x 50 mm; eluents: water / acetonitrile, 0.1% formic acid
Use RP-LC retention time to assign classes; range list: c1: < 700 s; c2: ≥ 700 s and < 900 s; c3: ≥ 900 s

Problem: Which RP-LC retention time band matches COc1cccc(C(O)CN2CCN(c3ccccc3OC)CC2)c1 (stereo not given) ?
Result: c1

Problem: Again, but for O=C(NCCCN1CCCCCC1)C1CCCN(c2nc3cccnc3s2)C1 (stereo not given)
Result: c1

Problem: Again, but for CCc1nc2cc(-c3noc(-c4ccc5ccccc5n4)n3)ccc2o1
Result: c3

Problem: Again, but for CCCNC(=O)c1cnn(-c2cc(-c3nc(CC)no3)ccn2)c1C
Result: c2

Problem: Again, but for O=C(CN1CCCCCC1)NCC12CCCC=C1NC(=O)CC2 (stereo not given)
Result: c1

Problem: Again, but for O=C(Cn1c(=O)c2cc(C3CC3)nn2c2ncccc21)Nc1ccc(F)cc1F
Result: c2

Problem: Again, but for O=C(Nc1ccc(Cl)cc1F)C1CCCN(C(=O)Cc2cccc3ccccc23)C1 (stereo not given)
Result: c3

Data provenance is the METLIN SMRT retention time set (Domingo-Almenara et al. 2019).
